All figures here come from PubChem BioAssay.

Target: L-lactate dehydrogenase (Plasmodium falciparum (isolate CDC / Honduras))
Test: PfLDH activity inhibition – cell lysate, 3D7 strain, counter-screen for P. falciparum growth inhibition project (AID 2304);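 also: 0% = vehicle and 100% = reference inhibitor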
Conditions: P. falciparum 3D7 crude extract, LDH APAD/NBT absorbance; at 2 µM; hits give high values
Listed compounds paired with reported inhibition

# Compound, Measure unit, inhibition
records = [
    ("CN(CC1CCC(NC(=O)/C=C/c2ccc(Cl)c(Cl)c2)CC1)C1CCC(c2c[nH]c3ccccc23)CC1 (stereo not drawn)", "%", -3),
    ("COCCN1CCC(N(Cc2ccc(-c3ccc(OC(F)(F)F)cc3)cc2)C(=O)Cn2c(CCc3cccc(F)c3F)cc(=O)c3ccccc32)CC1", "%", -10),
    ("O=C(NCCCN1CCOCC1)c1csc(Nc2ccc(Cl)c(Cl)c2)n1", "%", 2),
    ("CC(C)(C)c1ccc(CN2CCC(NC(=O)c3ccc(-c4ccccc4F)s3)CC2)cc1", "%", 0),
    ("c1cncc(NCc2ccc(-c3cc4ccncc4cc3OC3CCNCC3)s2)c1", "%", 2),
    ("COc1ccc(NC(=O)c2csc(-c3cc(NC(=O)c4ccnc(N5CCCC5)c4)ccc3C)c2)cc1N1CCN(C)CC1", "%", 1),
    ("COc1cccc(NC(=O)c2cc([N+](=O)[O-])ccc2NC(=O)CN2CCc3ccccc3C2)c1", "%", -1),
    ("CCCNCc1ccc(-c2ccc(CN(C(=O)c3nn(-c4ccccc4)nc3C)C3CCOCC3)cc2)nc1", "%", 4),
    ("CC(=O)Nc1ncc(C(=O)Nc2cccc(-c3ccc(-c4nc5c(C)cccc5[nH]4)cc3)c2)s1", "%", 3),
    ("O=C(Nc1ccc(Cn2nc(Cl)c(N3CCNCC3)cc2=O)cc1)Nc1ccc(-c2ccccc2)cc1", "%", -3),
    ("Clc1ccc(OC2CCC(Cn3ccnc3)(c3ccc(Cl)cc3Cl)CC2)c(Cl)c1 (stereo not drawn)", "%", -4),
    ("Cc1cccc2[nH]c(-c3ccc(-c4cccc(NC(=O)Nc5ccsc5)c4)cc3)nc12", "%", 8),
    ("O=C(NC1CC1)c1cnc(N2CCC(Cc3ccccc3)CC2)c(Cl)c1", "%", -2),
    ("COc1ccc(C2C(C(=O)Nc3ccc(C)cc3Br)c3ccccc3C(=O)N2C)cc1 (stereo not drawn)", "%", 6),
    ("CC(C)[C@H](NC(=O)c1c(CN2CCC(N3CCCCC3)CC2)c(-c2ccccc2)nc2cc(O)ccc12)c1ccccc1", "%", 4),
    ("Cc1cnc(C(=O)Nc2cccc(-c3cccc(-c4nc5ccc(F)cc5[nH]4)c3)c2)cn1", "%", -1),
    ("O=C(Nc1ccc(Oc2ccccc2)cc1)N(CCN1CCCC1)Cc1ccc(-c2ccc(CN3CCNCC3)cc2)cc1", "%", -2),
    ("CC(=O)Nc1cccc(NC(=O)CSc2ccc(-c3nc4ccccc4[nH]3)cn2)c1", "%", -4),
]

----------
Test: inhibition of 3D7 malaria parasite growth – strain 3D7 (AID 2306);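 also: 0% = DMSO wells and 100% = chloroquine plus artemisinin control wells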
Conditions: P. falciparum 3D7 erythrocytic growth, LDH absorbance, 72 h; at 2 µM; hits give high values

# Compound, growth inhibition (%)
data = [
    ("COc1cc(C(=O)Nc2ccc(-c3nc4ccccc4[nH]3)cc2)cc(OC)c1OC", 99),
    ("CN1CCN(CCCN(Cc2csc(-c3ccc(CNCc4ccccc4)cc3)n2)S(=O)(=O)c2cccc3cccnc23)CC1", 89),
    ("CC(CCON1C(N)=NC(N)=NC1(C)C)c1ccc(Cl)cc1 (stereo not given)", 93),
    ("Cc1ccc2nc(C)cc(NN=Cc3cccc(Cl)c3)c2c1", 102),
    ("CC(C)(C)c1ccccc1OCCCON1C(N)=NC(N)=NC1(C)C", 95),
]

----------
Biological target: L-lactate dehydrogenase (Plasmodium falciparum (isolate CDC / Honduras))
Experiment: PfLDH activity inhibition – cell lysate, 3D7 strain, counter-screen for P. falciparum growth inhibition project (AID 2304);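 also: 0% = vehicle and 100% = reference inhibitor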
Conditions: P. falciparum 3D7 crude extract, LDH APAD/NBT absorbance; at 2 µM; hits give high values
Calls of active or inactive are those of the source. How the calls were made is not given here.
Metric: inhibition

# Smiles notation, System under test, Metric, Result
records = [
    ("Cc1nnsc1C(=O)Nc1cccc(-c2cccc(-c3nc4ccc(F)cc4[nH]3)c2)c1", "L-lactate dehydrogenase (Plasmodium falciparum (isolate CDC / Honduras))", "inhibition", "3% (inactive)"),
    ("CN(C)Cc1cccc(-c2ccc3ccnc(N)c3c2)c1", "L-lactate dehydrogenase (Plasmodium falciparum (isolate CDC / Honduras))", "inhibition", "3% (inactive)"),
    ("Cc1nc(-c2ccccc2)nc(N2CCN(C(=O)c3ccco3)CC2)c1Cc1ccccc1F", "L-lactate dehydrogenase (Plasmodium falciparum (isolate CDC / Honduras))", "inhibition", "1% (inactive)"),
    ("Cn1c(NC2CCN(CC3CCN(C(=O)/C=C/c4ccc(Cl)c(Cl)c4)CC3)CC2)nc2ccccc21", "L-lactate dehydrogenase (Plasmodium falciparum (isolate CDC / Honduras))", "inhibition", "3% (inactive)"),
    ("COc1nc2c(CCN3CCC(NCc4ccc5c(c4)NCCO5)CC3)c(Cl)cnc2cc1F", "L-lactate dehydrogenase (Plasmodium falciparum (isolate CDC / Honduras))", "inhibition", "1% (inactive)"),
]

----------
Experiment: human hepatoma cell viability loss – ATP luminescence, cytotoxicity control for P. falciparum antimalarial project, primary screen (AID 2303);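 also: 0% = DMSO wells and 100% = digitonin-killed cells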
Details: HepG2 viability, 24-48 h, at 10 µM
Active and inactive are the calls of the source.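 Rule for the calls: active = inhibition above 50%; inactive = the rest.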
Outcome codes: true (active), false (inactive)

# Compound, Class label
records = [
    ("Cc1ccc(S(=O)(=O)N2CCN(C(=O)c3cc(-c4cccs4)[nH]n3)CC2)c(C)c1", "false"),
    ("Cc1cc(C=C(P(=O)(OC(C)C)OC(C)C)P(=O)(OC(C)C)OC(C)C)c2ccccc2c1O", "false"),
    ("Oc1ccc(CCNc2nc(NCCCOc3ccccc3-c3cccc(C(F)(F)F)c3)nc(N3CCNCC3)n2)cc1", "false"),
    ("CC1(C)N=C(NC(=O)c2cc([N+](=O)[O-])cc([N+](=O)[O-])c2)N=C(N)N1OCc1cccc2ccccc12", "true"),
    ("COc1cc(Nc2nccc(NCC(O)c3ccc(C(F)(F)F)cc3)n2)cc(OC)c1OC (centres undefined)", "false"),
    ("COc1ccc2nccc([C@@H](O)CN3CCC(NCc4cc5ccccc5cn4)CC3)c2n1", "false"),
    ("Cc1nc2nc(N)nc(N)c2c(C)c1Cc1ccc(C(N)=O)cc1", "true"),
    ("COc1cc(Cc2c(C)nc3nc(N)nc(N)c3c2C)c(Br)c(OC)c1OC", "false"),
    ("Cc1noc(-c2ccc(NC[C@@H](C)NC[C@H](O)c3cccc(Cl)c3)cc2)n1", "false"),
]

----------
Listed compounds paired with reported growth inhibition
Experiment: antimalarial activity against Dd2 strain (AID 2302);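 also: 0% = DMSO untreated growth and 100% = chloroquine plus artemisinin killed control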
Conditions: P. falciparum Dd2 in RBCs, LDH growth readout, 72 h; at 2 µM; hits give high values
Metric: growth inhibition (%)

# Compound, Metric, Numeric value
records = [
    ("CN1CCN(Cc2cc3cc(NC(=O)/C=C/c4ccc(Cl)cc4)ccc3s2)CC1", "growth inhibition", 20),
    ("Cc1noc(=O)c2ccc(NC(=O)C(O)(CSc3ccccc3)CC(C)C)cc12 (stereo not given)", "growth inhibition", 89),
    ("CCCCCCCc1[nH]c2ccccc2c(=O)c1C", "growth inhibition", 96),
    ("COc1ccc2nccc([C@@H](O)CN3CCC(NC(=O)C(c4cc5ccccc5o4)N4CCN(C(c5ccccc5)c5ccccc5)CC4)CC3)c2c1 (stereo not given in full)", "growth inhibition", 100),
    ("O=C(CNC1CCCCC1)Nc1cccc(C(=O)Nc2cccc(C(F)(F)F)c2)c1", "growth inhibition", 80),
    ("C[C@H](Cc1ccc(OCCNC[C@H](O)c2cccc(Cl)c2)cc1)NC[C@H](O)c1ccc(Cl)c(Cl)c1", "growth inhibition", 64),
    ("O=C(Nc1ccc(Cl)cc1)c1ccc(CN2CCCN(CC3CCCCC3)CC2)cc1", "growth inhibition", 42),
    ("CN(CCCN)CCCNc1ccnc2cc(Cl)ccc12", "growth inhibition", -2),
    ("Cc1ccc(NS(=O)(=O)c2ccc(-c3ccccc3)cc2)c(Cn2cnc(N3CCCNCC3)cc2=O)c1", "growth inhibition", 33),
    ("CNS(=O)(=O)Cc1ccc(Nc2nccc(Nc3cccc4c3cnn4C(=O)Nc3ccccc3)n2)cc1", "growth inhibition", 5),
    ("COc1ccc(CC2(c3ccc(F)cc3)N=C(N)N(CCCc3cccnc3)C2=O)cc1 (stereo not given)", "growth inhibition", 97),
    ("COC1(C)Oc2ccc3cccc([N+](=O)[O-])c3c2C1=O (stereo not given)", "growth inhibition", -4),
    ("Cc1cc2nc(-c3ccc(/C=C/C(=O)NCCc4ccccc4)cc3)[nH]c2cc1C", "growth inhibition", 13),
    ("c1ccc(Oc2ccc(Nc3ccnc4cc(-c5cccc(CN6CCOCC6)c5)ccc34)cc2)cc1", "growth inhibition", 100),
    ("NC1CCN(Cc2ccc(-c3cccc(-c4nc5ccc(F)cc5[nH]4)c3)cc2)C1 (stereo not given)", "growth inhibition", 16),
    ("Cc1ccc(OCC2CCN(c3ncc(C(=O)NC4CC4)cc3Cl)CC2)cc1", "growth inhibition", 72),
    ("O=[N+]([O-])c1ccc(N2CCCN(C(=S)Nc3ccc(F)cc3Br)CC2)nc1", "growth inhibition", 99),
    ("Cc1cccc(C(=O)Nc2ccnc(N3CCC(N(C)Cc4cccc(C#N)c4)CC3)c2)c1", "growth inhibition", 52),
    ("Cc1cccc(NC(=O)c2cnc(N3CCN(c4ccncc4)CC3)c(Cl)c2)c1", "growth inhibition", 54),
    ("COc1ccc(-c2ccc(NC(=O)c3cccc(Cl)c3)cc2)cc1CN1CCC(O)CC1", "growth inhibition", 12),
]
